- System: Soluble Proteome
- procedure-details: anti-target inhibition in MCF7 proteome, late-stage follow-up, selectivity assay for PAD4 inhibitor project, cell lysate, gel-based fluorescence, soluble and membrane fractions (AID 651628)
- condition-context: CA-Rh gel-based ABPP, anti-target count, at 10 µM
Activity calls are given as the source filed them.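 Rule for the calls: active = at least one off-target enzyme showing weaker fluorescent probe labeling in any proteome panel; inactive = no off-target enzyme affected in any panel.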
Classes used: T (active), F (inactive)

- smiles-record: "COC(=O)c1cccc(-c2ccc3c(n2)C(=O)C(Br)=CC3=O)n1"
  qualitative-label: "F"
- smiles-record: "COC1=C(Br)C(=O)c2ncccc2C1=O"
  qualitative-label: "T"
- smiles-record: "NC1=CC(=O)c2ccc(-c3cccc(C(=O)O)n3)nc2C1=O"
  qualitative-label: "F"
- smiles-record: "COC1=C(N)C(=O)c2ncccc2C1=O"
  qualitative-label: "F"
- smiles-record: "COC1=C(I)C(=O)c2nc(C#N)ccc2C1=O"
  qualitative-label: "T"
- smiles-record: "O=C1C(O)=C(O)C(=O)c2ncccc21"
  qualitative-label: "F"
- smiles-record: "COC1=C(Br)C(=O)c2nc(-c3ccccn3)ccc2C1=O"
  qualitative-label: "F"
- smiles-record: "NC1=CC(=O)c2ccc(-c3ccccn3)nc2C1=O"
  qualitative-label: "F"
